Assay System: T1, human GREM1 (hGREM1-His; SEQ ID NO: 595) (human, UniProt O60565 25-184)
T1 construct: also called biotin-hGREM1-His; recombinant human GREM1 protein
T1 sequence: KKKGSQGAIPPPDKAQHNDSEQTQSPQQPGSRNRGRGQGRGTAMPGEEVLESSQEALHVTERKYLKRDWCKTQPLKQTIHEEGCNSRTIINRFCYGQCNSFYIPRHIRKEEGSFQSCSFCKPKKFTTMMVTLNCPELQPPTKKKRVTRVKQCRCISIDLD
Run Description: SPR, Biacore T200, 25 C, mAb captured, hGREM1-His injected;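 note: Heparin-supplemented HBS-EP+ used as running buffer, association and dissociation phases followed, Kd computed as koff divided by kon and half-life derived from koff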
Catalogue of log10 of kon readings, one per entry.
Measured Attribute: log10 of kon (log10 of the value in M⁻¹ s⁻¹)

Binder | log10 of kon
H2bM2890N (antibody, mouse IgG2, V domains shown, H2M prefix = mouse IgG2 Fc (here H2bM); also called H2M2890N) VH: QVQLVESGGGVVQPGRSLRLTCAASGFTFSSFGMHWVRQAPGKGLEWVAIIWYDGSNKYYADSVKGRFTISRDNSKNTLYLQMNSLRAEDTAVYYCAREDNWTRDYFDYWGQGTLVTVSS VL: EIVLTQSPATLSLSPGERATLSCRASQSVSNFLAWYQQKPGQAPRLLIYDASNRATGIPARFSGSGSGTDFTLTISSLEPEDFAVYYCQQRSNWPPLPFGGGTKVEIK | 4.00
H4H6232P (antibody, human IgG4, V domains shown, H4H prefix = human IgG4 Fc) VH: QVQLVQSGAEVKKPGASVKVSCKVSGYTLTELSMHWVRQAPGKGLEWMGGFDPEDGETIYAQKFQGRLTMTEDTSTDTAYMELSSLRSEDTAVYYCATDDYDILTSYPYNMDVWGQGTTVTVSS VL: DIQMTQSPSSLSASVGDRVTITCRASQSINNYLNWYQQKPGKAPKLLIYAASSLQSGVPSRFSGSGSGTDFTLTISSLQPEDFGTYYCQQSDSTPFTFGPGTKVDIK | 4.89
H2bM2786N (antibody, mouse IgG2, V domains shown, H2M prefix = mouse IgG2 Fc (here H2bM); also called H2M2786N) VH: EVHLLESGGGLVQPGGSLRLSCAASGFTFSSYVMNWVRQAPGKGLEWVSAISGSGGSTYYGDSVKGRSTISRDNSKNTLYLQMKSLRAEDTAVYYCAKGDIAPIVFDAFDIWGQGTMVTVSS VL: DIQMTQSPSSLSASVGDRVTITCQASQDISNCLNWYQHKPGKAPKLLIYDASYLETGVPSRFSGSGSGTDFTFTISSLQPEDIATYYCQQYDNLPYTFGQGTKLEIK | 5.26
H4H2780N (antibody, human IgG4, V domains shown, H4H prefix = human IgG4 Fc) VH: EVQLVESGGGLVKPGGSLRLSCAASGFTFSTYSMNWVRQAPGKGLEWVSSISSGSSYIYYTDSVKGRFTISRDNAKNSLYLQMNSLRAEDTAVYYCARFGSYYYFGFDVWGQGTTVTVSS VL: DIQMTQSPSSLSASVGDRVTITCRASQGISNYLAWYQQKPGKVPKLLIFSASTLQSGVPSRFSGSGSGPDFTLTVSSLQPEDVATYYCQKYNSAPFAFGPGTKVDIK | 4.85
H4H6248P (antibody, human IgG4, V domains shown, H4H prefix = human IgG4 Fc) VH: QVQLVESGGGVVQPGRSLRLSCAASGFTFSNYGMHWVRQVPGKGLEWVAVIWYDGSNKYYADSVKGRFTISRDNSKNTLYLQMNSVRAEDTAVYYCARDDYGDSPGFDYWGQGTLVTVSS VL: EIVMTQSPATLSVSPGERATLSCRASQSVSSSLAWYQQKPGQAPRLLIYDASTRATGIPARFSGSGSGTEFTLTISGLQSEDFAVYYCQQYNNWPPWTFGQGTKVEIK | 4.70
H4H2783N2 (antibody, human IgG4, V domains shown, H4H prefix = human IgG4 Fc) VH: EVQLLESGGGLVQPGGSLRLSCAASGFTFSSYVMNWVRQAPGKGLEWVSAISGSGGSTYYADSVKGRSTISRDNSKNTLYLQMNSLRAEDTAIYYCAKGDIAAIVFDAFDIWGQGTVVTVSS VL: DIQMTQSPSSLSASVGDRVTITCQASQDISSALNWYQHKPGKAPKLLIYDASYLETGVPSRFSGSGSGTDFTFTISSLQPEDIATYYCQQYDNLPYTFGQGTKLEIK | 4.48
H4H2892N (antibody, human IgG4, V domains shown, H4H prefix = human IgG4 Fc) VH: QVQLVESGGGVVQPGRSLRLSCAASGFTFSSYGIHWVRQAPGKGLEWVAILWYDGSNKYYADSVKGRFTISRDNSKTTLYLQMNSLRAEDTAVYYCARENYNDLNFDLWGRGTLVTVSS VL: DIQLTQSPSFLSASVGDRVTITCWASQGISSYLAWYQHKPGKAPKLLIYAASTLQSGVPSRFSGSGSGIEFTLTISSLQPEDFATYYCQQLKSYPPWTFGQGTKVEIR | 5.15
H4H6252P (antibody, human IgG4, V domains shown, H4H prefix = human IgG4 Fc; also called H4H6252S) VH: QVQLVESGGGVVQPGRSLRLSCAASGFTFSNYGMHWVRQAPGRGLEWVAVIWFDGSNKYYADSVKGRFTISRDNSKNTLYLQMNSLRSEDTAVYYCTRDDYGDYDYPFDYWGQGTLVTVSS VL: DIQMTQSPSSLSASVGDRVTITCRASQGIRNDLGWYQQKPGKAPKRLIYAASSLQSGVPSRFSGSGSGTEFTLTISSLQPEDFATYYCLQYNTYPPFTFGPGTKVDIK | 4.87
H4H6260P (antibody, human IgG4, V domains shown, H4H prefix = human IgG4 Fc) VH: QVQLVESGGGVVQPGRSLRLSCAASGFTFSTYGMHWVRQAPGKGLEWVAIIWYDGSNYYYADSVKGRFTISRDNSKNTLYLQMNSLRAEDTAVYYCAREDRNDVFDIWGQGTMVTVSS VL: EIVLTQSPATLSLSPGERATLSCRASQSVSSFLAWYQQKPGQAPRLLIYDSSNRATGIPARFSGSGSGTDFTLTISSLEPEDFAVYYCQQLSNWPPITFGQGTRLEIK | 4.99
H4H2889N (antibody, human IgG4, V domains shown, H4H prefix = human IgG4 Fc) VH: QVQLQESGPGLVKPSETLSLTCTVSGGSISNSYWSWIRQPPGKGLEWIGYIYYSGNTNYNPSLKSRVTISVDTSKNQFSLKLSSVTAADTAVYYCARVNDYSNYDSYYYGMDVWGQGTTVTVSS VL: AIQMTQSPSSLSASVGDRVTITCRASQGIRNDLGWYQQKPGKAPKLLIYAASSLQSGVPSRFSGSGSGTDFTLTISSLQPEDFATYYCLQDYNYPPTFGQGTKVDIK | 4.80
